Hello, the source for this data is patent US8178506B2, in case you need it.

Measured mir-21 pri-miRNA expression % UTC accompanies every entry in the list below.
- Tested on: mir-21 pri-miRNA
- measurementProtocol: mir-21 pri-miRNA expression in HeLa cells (real-time RT-PCR)
- Type: cell-based, human
- appliedConditions: HeLa cells, 100 nM, real-time RT-PCR
In the oligonucleotide strings, read from the 5' end, every base follows the letter of its sugar. An asterisk marks phosphorothioate; unmarked linkages are phosphodiester. Other units and linkages are bracketed, terminal groups are in braces. A string of capitals states the bases alone. e = 2'-O-(2-methoxyethyl) (MOE); [5mC] = 5-methylcytosine
I only need the number, in % UTC, no unit after it.

Answered cases to consult:
[
  {
    "substance": "327917 (antisense eT*e[5mC]*eA*eA*e[5mC]*eA*eT*e[5mC]*eA*eG*eT*e[5mC]*eT*eG*eA*eT*eA*eA*eG*e[5mC]*eT*eA) [compound 327917]",
    "readoutUnits": "% UTC",
    "mir-21 pri-miRNA expression % UTC": 249
  },
  {
    "substance": "358785 (antisense eG*eA*eA*eA*eG*eA*eT*eA*e[5mC]*e[5mC]*eA*eA*eA*eA*eT*eG*eT*e[5mC]*eA*eG) [compound 358785]",
    "readoutUnits": "% UTC",
    "mir-21 pri-miRNA expression % UTC": 257
  }
]

Now look at this entry.
Sample 358778 (antisense eG*eA*eT*eA*e[5mC]*e[5mC]*eA*eA*eA*eA*eT*eG*eT*e[5mC]*eA*eG*eA*e[5mC]*eA*eG) [compound 358778] — what was its mir-21 pri-miRNA expression % UTC?
503

###

- Tested on: HSL
- measurementProtocol: HSL mRNA expression in adipocytes (real-time PCR)
- Assay type: cell-based, human
- appliedConditions: Table 17; differentiating adipocytes; control = treatment with ISIS 342673
In the oligonucleotide strings, read from the 5' end, every base follows the letter of its sugar. An asterisk marks phosphorothioate; unmarked linkages are phosphodiester. Other units and linkages are bracketed, terminal groups are in braces. A string of capitals states the bases alone. e = 2'-O-(2-methoxyethyl) (MOE); [5mC] = 5-methylcytosine
Measured HSL mRNA accompanies every entry in the list below.

Answered cases to consult:
[
  {
    "substance": "328128 (antisense eA*eG*eT*eA*eA*e[5mC]*eT*eT*e[5mC]*eT*eT*eG*e[5mC]*eA*eG*eT*eT*eG*eG*eA) [compound 328128]",
    "HSL mRNA": "94.1 percentage of control"
  },
  {
    "substance": "328127 (antisense eA*eA*e[5mC]*eG*eA*eT*eA*eA*eA*eA*e[5mC]*eA*eT*eA*e[5mC]*eT*eT*eG*eT*e[5mC]*eA) [compound 328127]",
    "HSL mRNA": "89.7 percentage of control"
  },
  {
    "substance": "328136 (eA*eA*e[5mC]*eT*eA*e[5mC]*eT*eT*e[5mC]*e[5mC]*eA*eG*eA*eG*e[5mC]*eA*eG*eG*eT*eG*eA; anti-miR) [compound 328136]",
    "HSL mRNA": "65.0 percentage of control"
  },
  {
    "substance": "328139 (eT*eA*e[5mC]*eT*eT*eT*eT*e[5mC]*eA*eT*eT*e[5mC]*e[5mC]*e[5mC]*e[5mC]*eT*e[5mC]*eA*e[5mC]*e[5mC]*eA; anti-miR) [compound 328139]",
    "HSL mRNA": "92.6 percentage of control"
  }
]

Sample 328126 (antisense e[5mC]*e[5mC]*eA*eA*eG*eT*eG*eT*eT*eA*eG*eA*eG*e[5mC]*eA*eA*eG*eA*eT*e[5mC]*eA) [compound 328126] — what was its HSL mRNA?
83.2 percentage of control

Sample 328134 (eA*eA*eT*eT*eG*eG*eA*e[5mC]*eA*eA*eA*eG*eT*eG*e[5mC]*e[5mC]*eT*eT*eT*e[5mC]*eA; anti-miR) [compound 328134] — what was its HSL mRNA?
74.7 percentage of control

Sample 328118 (antisense eT*eA*eT*eT*eA*eT*e[5mC]*eA*eG*e[5mC]*eA*eT*e[5mC]*eT*eG*e[5mC]*eT*eT*eG*e[5mC]*eA) [compound 328118] — what was its HSL mRNA?
85.3 percentage of control

###

- Tested on: aP2
- measurementProtocol: aP2 mRNA expression in adipocytes (real-time PCR)
- Format: cell-based, human
- appliedConditions: differentiating adipocytes transfected with oligomeric compound; Table 75
In the oligonucleotide strings, read from the 5' end, every base follows the letter of its sugar. An asterisk marks phosphorothioate; unmarked linkages are phosphodiester. Other units and linkages are bracketed, terminal groups are in braces. A string of capitals states the bases alone. e = 2'-O-(2-methoxyethyl) (MOE); [5mC] = 5-methylcytosine
Measured aP2 mRNA accompanies every entry in the list below.

Answered cases to consult:
[
  {
    "substance": "346915 (ACAUCGUUACCAGACAGUGUUA; all 2'-MOE, all phosphorothioate, methylation of C and T or U not given here) [compound 346915]",
    "result": "83 percentage of untreated control (UTC)"
  },
  {
    "substance": "328136 (eA*eA*e[5mC]*eT*eA*e[5mC]*eT*eT*e[5mC]*e[5mC]*eA*eG*eA*eG*e[5mC]*eA*eG*eG*eT*eG*eA; anti-miR) [compound 328136]",
    "result": "57 percentage of untreated control (UTC)"
  },
  {
    "substance": "346920 (AGCAAAAAUGUGCUAGUGCCAAA; all 2'-MOE, all phosphorothioate, methylation of C and T or U not given here) [compound 346920]",
    "result": "70 percentage of untreated control (UTC)"
  },
  {
    "substance": "327957 (antisense e[5mC]*eA*e[5mC]*eA*eA*eG*eT*eT*e[5mC]*eG*eG*eA*eT*e[5mC]*eT*eA*e[5mC]*eG*eG*eG*eT*eT) [compound 327957]",
    "result": "23 percentage of untreated control (UTC)"
  }
]

Now look at this entry.
aP2 mRNA of 341797 (antisense ACAAGUGCCUUCACUGCAGU; all 2'-MOE, all phosphorothioate, methylation of C and T or U not given here) [compound 341797] on aP2?
45 percentage of untreated control (UTC)

###

- System: adipocytes
- measurementProtocol: Triglyceride accumulation assay in adipocytes
- Format: cell-based, human
- appliedConditions: differentiating adipocytes transfected with oligomeric compound; Table 75
- Method: The triglyceride accumulation assay measures the synthesis of triglyceride by adipocytes. Triglyceride accumulation is measured using the Infinity™ Triglyceride reagent kit (Sigma-Aldrich, St. Louis, Mo.). […] Triglyceride accumulation is measured based on the amount of glycerol liberated from triglycerides by the enzyme lipoprotein lipase. […] Dye absorbance, which is proportional to the concentration of glycerol, is measured at 515 nm using an UV spectrophotometer. […]
In the oligonucleotide strings, read from the 5' end, every base follows the letter of its sugar. An asterisk marks phosphorothioate; unmarked linkages are phosphodiester. Other units and linkages are bracketed, terminal groups are in braces. A string of capitals states the bases alone. e = 2'-O-(2-methoxyethyl) (MOE); [5mC] = 5-methylcytosine
Measured TG (triglyceride accumulation) accompanies every entry in the list below.

[
  {
    "substance": "346691 (GCAGAAGCAUUUCCACACAC; all 2'-MOE, all phosphorothioate, methylation of C and T or U not given here) [compound 346691]",
    "studySystem": "adipocytes",
    "TG (triglyceride accumulation)": "56 percentage of untreated control (UTC)"
  },
  {
    "substance": "328125 (antisense eT*eA*eT*eG*eA*eA*eA*eT*eG*e[5mC]*e[5mC]*eA*eG*eA*eG*e[5mC]*eT*eG*e[5mC]*e[5mC]*eA) [compound 328125]",
    "studySystem": "adipocytes",
    "TG (triglyceride accumulation)": "44 percentage of untreated control (UTC)"
  },
  {
    "substance": "328098 (antisense eG*eA*eG*eA*eA*eT*e[5mC]*eA*eA*eT*eA*eG*eG*eG*e[5mC]*eA*eT*eG*e[5mC]*eA*eA) [compound 328098]",
    "studySystem": "adipocytes",
    "TG (triglyceride accumulation)": "39 percentage of untreated control (UTC)"
  }
]

TG (triglyceride accumulation) of 328107 (antisense e[5mC]*eT*eG*eT*eG*eA*e[5mC]*eT*eT*e[5mC]*eT*e[5mC]*eT*eA*eT*e[5mC]*eT*eG*e[5mC]*e[5mC]*eT) [compound 328107] on adipocytes?
51 percentage of untreated control (UTC)

TG (triglyceride accumulation) of 328101 (antisense eA*eA*eA*e[5mC]*e[5mC]*e[5mC]*e[5mC]*eT*eA*eT*e[5mC]*eA*e[5mC]*eG*eA*eT*eT*eA*eG*e[5mC]*eA) [compound 328101] on adipocytes?
67 percentage of untreated control (UTC)

TG (triglyceride accumulation) of 346693 (CCCUCUGGUCAACCAGUCACA; all 2'-MOE, all phosphorothioate, methylation of C and T or U not given here) [compound 346693] on adipocytes?
69 percentage of untreated control (UTC)

TG (triglyceride accumulation) of 344340 (UGUCCGUGGUUCUACCCUGUGGUA; all 2'-MOE, all phosphorothioate, methylation of C and T or U not given here) [compound 344340] on adipocytes?
60 percentage of untreated control (UTC)

TG (triglyceride accumulation) of 327958 (antisense e[5mC]*e[5mC]*eG*eG*e[5mC]*eT*eG*e[5mC]*eA*eA*e[5mC]*eA*e[5mC]*eA*eA*eG*eA*e[5mC]*eA*e[5mC]*eG*eA) [compound 327958] on adipocytes?
28 percentage of untreated control (UTC)

TG (triglyceride accumulation) of 346913 (AGAAAGGCAGCAGGUCGUAUAG; all 2'-MOE, all phosphorothioate, methylation of C and T or U not given here) [compound 346913] on adipocytes?
63 percentage of untreated control (UTC)

TG (triglyceride accumulation) of 340348 (antisense CTACCTGCACGAACAGCACTTT; all 2'-MOE, all phosphorothioate, methylation of C not given here) [compound 340348] on adipocytes?
48 percentage of untreated control (UTC)
